- Assay remarks: protein stability index of a GFP-peptide fusion (yeast GPS) (PSI 1-4); higher = more stable; sorted into four equal gates, so the index is relative within each strain
- Condition label: san1∆
Observation type: protein stability index
Numbers only.

{"columns": ["Macromolecule sequence", "protein stability index"],
 "data": [
  ["ISSAKLDKFTDGGLFTL [QCR2]", 3.23],
  ["TIRLWECGTGTTIHTFN [RPN14]", 2.21],
  ["NNIEENLRLLNSIDSTS [ECM29]", 3.18],
  ["AAMVIMHLMALHIHGSS [COB]", 1.35]
]}

Return reported protein stability index values for all items listed beneath this line.
1. INSGTFVKVTKATLELL [RPL7A]
2. SFFHQSNMQKSLLPYYH [RPN3]
3. EKELQNEIKQLGSDSSD [SRB4]
4. IGDDGYDLLISTLTTIS [SRB5]

Given back:
[2.65, 1.63, 2.27, 1.52]

----------
I'd be grateful if you could share measured protein stability index for these entries.
- Assay remarks: protein stability index of a GFP-peptide fusion (yeast GPS) (PSI 1-4); higher = more stable; sorted into four equal gates, so the index is relative within each strain
- Condition label: pdr5∆
Numbers only.

{"columns": ["Macromolecule sequence", "protein stability index"],
 "data": [
  ["LISNLLFSKNRNEVLES [YCS4]", 2.68]
]}

Return reported protein stability index values for all items listed beneath this line.
1. ADLSSSEEEEDEEENGS [SSN2]
2. QRMHAIHEIDERLAKVN [NNF1]
3. LTLMEKAAFEDLKSKGL [FAS1]

Given back:
1. 3.51
2. 2.59
3. 3.29

Return reported protein stability index values for all items listed beneath this line.
1. NAIQTEVYGINEESTNE [SIR4]
2. FDHNDKKLSINSAARNI [PRE7]
3. TKVNNQLIKVAVHNGDR [RPL9B]
4. RALSIFSPDGHIFQVEY [PRE6]

Given back:
1: 3.03; 2: 2.47; 3: 1.52; 4: 2.98

----------
- Assay remarks: protein stability index of a GFP-peptide fusion (yeast GPS) (PSI 1-4); higher = more stable; sorted into four equal gates, so the index is relative within each strain
- Condition label: ubr1∆
Observation type: protein stability index
Numbers only.

// worked examples, protein stability index included
{"columns": ["Macromolecule sequence", "protein stability index"],
 "data": [
  ["VLKVYSMINNSNQAVGQ [SRB8]", 2.63],
  ["RPDITMYCRPAPSDFSE [GRR1]", 2.17],
  ["DNETPSKKTSPKATSSA [YOR098C/NUP1]", 3.03]
]}

Return reported protein stability index values for all items listed beneath this line.
1. LLVLLQDVIKVLYQSNA [SWP82]
2. KMSVTCNAQPITRSVMR [BRR2]
3. NVTFGSKKDPRILKNVS [YMR153W/NUP53]
4. TTGISSTGAADGGYNAQ [SMC2]
5. NLQQDKTNFQDVILDYQ [REC8]
6. NAEKTGKRQVLLRPSSK [RPS22B]
7. GQLLSVKFLVYQGVYSM [YML031W/NDC1]

Given back:
1. 1.7
2. 2.5
3. 2.67
4. 3.17
5. 3.12
6. 2.85
7. 1.98

Return reported protein stability index values for all items listed beneath this line.
1. GSQKTFEIDDEHRIRVF [RPS6A]
2. YLEDIIGTANYKPLIEE [SMC4]
3. KTYGISDDIISQVDPIT [FAS2]
4. QNRSLQEHNIQDSNVMP [SNF2]
5. ATYSNEFKCMSVITAQQ [YGL100W/SEH1]
6. LLKKATKPEVASDMSDE [CDC53]
7. DLINILEKKGFSEVYEY [LIN1]
8. IKNIGKSLKNNFYRPLL [YML103C/NUP188]

Given back:
2.5
3.23
1.06
3.31
2.01
2.89
3.17
2.77

Return reported protein stability index values for all items listed beneath this line.
1. RLTMGNVFTPEISSQIE [RRI2]
2. SETREKELESIDVLLEQ [RPB4]
3. LITKANKVSYYGNPTSK [RTT102]
4. SKKGSLENNIREFPEYF [RPL10]
5. CKSLISENEDTKDLLSK [CSE2]
6. KDDGAFVKFLSKKGSLE [RPL10]
7. HFENAKVIDLDTKLKAH [YIL149C/MLP2]
8. ESPNYCNALIHIKFSAG [SRB4]

Given back:
[2.92, 3, 2.2, 3.36, 3.22, 3.25, 2.48, 2.04]
